Tested on: L1210 leukemia ip in BDF1 mice, survival T/C
Experiment: NCI In Vivo Anticancer Drug Screen. Data for tumor model L1210 Leukemia (intraperitoneal) in B6D2F1 (BDF1) mice
Details: endpoint: mean survival time; dose: 100.0 mg/kg/injection; schedule: Q04DX003 (ip); vehicle: saline; higher = longer survival
Inconclusive results and toxic doses are left out.
measuredProperty: T/C

These recorded examples may help you get a feel for the data.
compound	T/C
O=C(O)C1CC=CCC1C(=O)O (stereo not drawn)	94 % of control
NC(CCl)=NCc1ccccc1	95 % of control
Nc1ncns1	117 % of control

Hey, quick one: what's T/C for each of these?
1. CCN(CC)C(=O)NC1CCCN1C (stereo not drawn)
2. c1ccc2c3c(ccc2c1)OCN(C12CC4CC(CC(C4)C1)C2)C3
3. NNc1ccc2c(O)cc(S(=O)(=O)O)cc2c1
4. CCOC(=O)CN(c1c(C)cc(C)c(N(CC(=O)OCC)S(=O)(=O)c2ccccc2)c1C)S(=O)(=O)c1ccccc1
5. Cc1cccc(CN)n1
6. NC(C(=O)O)C(CC(=O)O)C(=O)O (stereo not drawn)
7. CCCCOP(=O)(NNC=O)OCCCC
8. CCCCCCCCCC(=O)CCC

1: 97 % of control; 2: 98 % of control; 3: 103 % of control; 4: 93 % of control; 5: 104 % of control; 6: 93 % of control; 7: 96 % of control; 8: 111 % of control

Hey, quick one: what's T/C for each of these?
1. O=[N+]([O-])c1cccc(P(=O)(c2cccc([N+](=O)[O-])c2)c2cccc([N+](=O)[O-])c2)c1
2. O=CNC(Cc1ccc(O)cc1)C(=O)O (stereo not drawn)

93 % of control
95 % of control

Ref: PubChem BioAssay AID248
